Entry source: patent US8557816B2

# STUDY SYSTEM: AuroraA-TPX2 (Homo sapiens, UniProt O14965)
# Construct: 20 μL of AuroraA-TPX2 KD GST for a final volume of about 41 μL; GST
# Sequence (O14965 133-383 limits assumed): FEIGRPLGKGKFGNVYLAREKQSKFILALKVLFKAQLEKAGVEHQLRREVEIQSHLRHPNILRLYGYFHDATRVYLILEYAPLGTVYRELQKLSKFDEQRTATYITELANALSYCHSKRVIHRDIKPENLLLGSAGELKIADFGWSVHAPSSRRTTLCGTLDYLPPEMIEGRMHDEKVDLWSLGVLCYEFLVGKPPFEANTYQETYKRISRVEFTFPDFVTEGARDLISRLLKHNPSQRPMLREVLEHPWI
# Sequence (Q9ULW0 1-43 partner limits assumed): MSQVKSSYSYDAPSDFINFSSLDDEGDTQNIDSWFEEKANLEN
# PROTOCOL: AuroraA-TPX2 Homogeneous Time Resolved Fluorescent (HTRF) kinase assay
# Type: biochemical
# RECORDED CONDITIONS: given as class symbol; read-out: AurA_IC50_IP (class symbol)
# Protocol: AuroraA-TPX2-Homogeneous Time Resolved Fluorescent (HTRF) Kinase Assay: The Aurora-A HTRF assay begins with Aurora-A in the presence of ATP phosphorylating the biotinylated peptide PLK. The reaction incubates for about 120 min. […] The assay is quenched and stopped with 160 μL of detection reagent. […] Added to this buffer prior to reading is Steptavidin allophycocyanin (SA-APC) at a final conc in the assay of 0.0005 mg/mL, and europilated anti-phosphoPLK Ab (Eu-anti-PLK) at a final conc of 0.02 nM. […]
pIC50: −log10 of the molar value.

| MOLECULE SMILES | pIC50 |
| --- | --- |
| c1ccc(-c2nnc(Nc3ccc(Sc4ccnc5ccccc45)cc3)c3ccccc23)cc1 | > 7.00 |

---

# STUDY SYSTEM: AuroraB (Homo sapiens, UniProt Q96GD4)
# Construct: 20 μL of AuroraB FL H is for a final volume of 41 μL; His
# Sequence (Q96GD4 whole entry): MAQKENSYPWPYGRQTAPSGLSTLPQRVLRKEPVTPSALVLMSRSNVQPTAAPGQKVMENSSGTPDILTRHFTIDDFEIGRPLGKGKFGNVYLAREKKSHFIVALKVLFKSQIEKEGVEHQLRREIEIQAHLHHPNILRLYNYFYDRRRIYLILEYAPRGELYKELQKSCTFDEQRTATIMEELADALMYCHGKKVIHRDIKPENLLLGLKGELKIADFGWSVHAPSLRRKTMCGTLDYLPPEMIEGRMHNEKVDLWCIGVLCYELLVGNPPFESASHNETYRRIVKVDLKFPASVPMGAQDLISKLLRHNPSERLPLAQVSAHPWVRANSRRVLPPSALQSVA
# PROTOCOL: AuroraB Homogeneous Time Resolved Fluorescent (HTRF) kinase assay
# Assay type: biochemical
# RECORDED CONDITIONS: average; read-out: AurB_IC50_IP (uM Avg)
TEST READOUT: IC50 (µM)

| MOLECULE | TEST READOUT | VALUE MEASURED |
| --- | --- | --- |
| COc1ccc2c(C(=O)c3ccc(Nc4nnc(-c5ccc(Cl)cc5)c5ccccc45)cc3)ccnc2c1 [compound 615] | IC50 | 0.039 |
| c1ccc(-c2nnc(Nc3ccc(Sc4ccnc5cccnc45)cc3)c3ccccc23)cc1 [compound 309] | IC50 | 0.003 |
| CCc1cc(-c2ccccc2OC)nnc1Nc1ccc(Sc2ccnc3cc(OC)cnc23)cc1 [compound 609] | IC50 | 0.02 |
| c1ccc2c(-c3ccc4c(c3)OCO4)nnc(Nc3ccc(Oc4ccnc5ccncc45)cc3)c2c1 [compound 424] | IC50 | 0.004 |
| COc1cnc2c(Oc3ccc(Nc4nnc(-c5ccc(Cl)c(C#N)c5)c5ccccc45)cc3)ccnc2c1 [compound 154] | IC50 | 0.004 |
| Clc1ccc(-c2nnc(Nc3ccc(Oc4ccnc5[nH]ccc45)cc3)c3ccccc23)cc1 [compound 241] | IC50 | 0.001 |
| Clc1ccc(-c2nnc(Nc3ccc(Oc4ncnc5[nH]ccc45)cc3)c3ccccc23)cc1 [compound 290] | IC50 | 0.009 |
| CCCN(C)c1nnc(Nc2ccc(Sc3ccnc4cc(OC)cnc34)cc2)c2ccccc12 [compound 524] | IC50 | 0.099 |

---

Each entry below carries its recorded IC50.
# STUDY SYSTEM: AuroraA-TPX2 (Homo sapiens)
# Construct: 20 μL of AuroraA-TPX2 KD GST for a final volume of about 41 μL; GST
# PROTOCOL: AuroraA-TPX2 Homogeneous Time Resolved Fluorescent (HTRF) kinase assay
# Format: biochemical
# RECORDED CONDITIONS: average; read-out: AurA_IC50_IP (uM Avg)

| MOLECULE SMILES | IC50 |
| --- | --- |
| COc1ccc(-c2nnc(Nc3ccc(Sc4ccnc5ccoc45)cc3)c3ccccc23)cn1 | 0.479 µM |
| Cc1ccc(-c2nnc(Nc3ccc(Oc4ccnc5cc(C#N)ccc45)cc3)c3ccccc23)nc1 | 0.022 µM |
| COc1cnc2c(Oc3ccc(Nc4nnc(-c5ccc(Cl)cc5)c5ccccc45)cn3)ccnc2c1 | 0.047 µM |
